test: in vivo; settings: male, SD, rat, in vivo, po, 15 mg/kg
MEASURED PROPERTY: Cmax (ng/mL)
I only need the number, in ng/mL, no unit after it.

Request: What Cmax value was documented for this compound, C=C(C)C1CCC(C)=CC1c1c(O)cc(CCCCC)cc1OC(=O)N(C)Cc1ccc(Cl)cc1 (centres unmarked) ?
Result: 211

Request: What would you report for C=C(C)C1CCC(C)=CC1c1c(O)cc(CCCCC)cc1OC(=O)NC (centres unmarked) ?
Result: 120

Request: One more compound: C=C(C)[C@@H]1CCC(C)=C[C@H]1c1c(O)cc(CCCCC)cc1O [CBD, Cannabidiol, reference compound]
Result: 48.9

Request: Next compound: C=C(C)C1CCC(C)=CC1c1c(O)cc(CCCCC)cc1OC(=O)N(C)CC (centres unmarked)
Result: 127

Request: Next record, please: C=C(C)C1CCC(C)=CC1c1c(O)cc(CCCCC)cc1OC(=O)N1CCCC1 (centres unmarked)
Result: 60

Provenance of the data: paper PMC11593952
